Experiment: Growth inhibition of human BJeLR cell by Trypan blue staining based analysis
Type: toxicity
Conditions: BJeLR cells

{"columns": ["Molecule", "Censor Symbol", "GI50 / nM"],
 "data": [
  ["CC(C)Oc1ccc(C(=O)CN2CCN(C)CC2)cc1-n1c(CN2CCN(C(=O)COc3ccc(Cl)cc3)CC2)nc2ccccc2c1=O", "=", 474],
  ["CC(C)Oc1ccc(C=O)cc1-n1c(CN2CCN(C(=O)COc3ccc(Cl)cc3)CC2)nc2ccccc2c1=O", "=", 8],
  ["CCOc1ccccc1-n1c(C(C)N2CCN(C(=O)COc3ccc(Cl)cc3)CC2)nc2ccccc2c1=O (configuration not stated) [ERASTIN]", "=", 1.7],
  ["CC(C)Oc1ccc(CN2CCOCC2)cc1-n1c(CN2CCN(C(=O)COc3ccc(Cl)cc3)CC2)nc2ccccc2c1=O", "=", 0.13],
  ["CC(C)Oc1ccc(CN2CCNCC2)cc1-n1c(CN2CCN(C(=O)COc3ccc(Cl)cc3)CC2)nc2ccccc2c1=O", "=", 0.9],
  ["CC(C)Oc1ccc(C(=O)CN2CCOCC2)cc1-n1c(CN2CCN(C(=O)COc3ccc(Cl)cc3)CC2)nc2ccccc2c1=O", "=", 427],
  ["CC(C)Oc1ccncc1-n1c(CN2CCN(C(=O)COc3ccc(Cl)cc3)CC2)nc2ccccc2c1=O", ">", 10]
]}

----------
Target: Cystine/glutamate transporter (Homo sapiens)
Sequence (Q9UPY5 whole entry): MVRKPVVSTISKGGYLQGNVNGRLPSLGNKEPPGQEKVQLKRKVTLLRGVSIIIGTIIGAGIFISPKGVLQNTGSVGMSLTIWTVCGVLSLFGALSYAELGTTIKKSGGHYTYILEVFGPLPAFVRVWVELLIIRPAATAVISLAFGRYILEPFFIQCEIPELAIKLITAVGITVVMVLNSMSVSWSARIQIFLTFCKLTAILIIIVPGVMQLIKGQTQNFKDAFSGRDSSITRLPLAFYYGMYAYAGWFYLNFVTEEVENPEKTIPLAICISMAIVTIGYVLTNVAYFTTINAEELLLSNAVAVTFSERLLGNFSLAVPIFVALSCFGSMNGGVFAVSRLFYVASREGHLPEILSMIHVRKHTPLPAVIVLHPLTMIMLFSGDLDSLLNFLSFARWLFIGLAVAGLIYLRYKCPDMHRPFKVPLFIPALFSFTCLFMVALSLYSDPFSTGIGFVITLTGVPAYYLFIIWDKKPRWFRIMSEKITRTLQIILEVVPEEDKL
Assay: Inhibition of Xc- in human HT-1080 cells assessed as decrease in glutamate release incubated for 2 hrs by Amplex red assay
Listed compounds paired with reported IC50
Measured Parameter: IC50 (nM)

{"columns": ["Item Smiles", "Measured Parameter", "Observed Value"],
 "data": [
  ["CC(C)Oc1ccc(C(=O)CN2CCN(C)CC2)cc1-n1c(CN2CCN(C(=O)COc3ccc(Cl)cc3)CC2)nc2ccccc2c1=O", "IC50", 300],
  ["CC(C)Oc1ccc(C(=O)CN2CCOCC2)cc1-n1c(CN2CCN(C(=O)COc3ccc(Cl)cc3)CC2)nc2ccccc2c1=O", "IC50", 10]
]}

Cited source for all entries: ChEMBL document CHEMBL5550084
